# testTarget: T1, FOXC2-DBD (human, UniProt Q99958 72-171)
# T1 sequence: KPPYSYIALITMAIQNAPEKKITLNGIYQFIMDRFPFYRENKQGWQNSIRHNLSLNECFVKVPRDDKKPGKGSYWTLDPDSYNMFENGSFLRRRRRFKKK
# experimentalProtocol: ITC
assayMetric: Kd (nM)

binder: GTACACA site (ITC) (dsDNA) DNA 1: TGCAAAATGTACACAAGACT DNA 2: AGTCTTGTGTACATTTTGCA
numericValue: 2220
